MIC: recorded values
System: P. aeruginosa
Format: cell-based, Pseudomonas aeruginosa
Ends that are not written are not given here.
Give a bare numeral; the unit µg/mL is implied.

Input: Lab note: need MIC for FIHHAAGGLFSAGKAIHRLIRRRRR [I5A/I6A] on P. aeruginosa, anyone have it?
Output: 512

Input: Another sequence to check: IIGGLFSAGKAIHRLIRRRRR [dN4]
Output: 256

Input: Another sequence to check: FIHHIIGGLFSAGKAIHRHHRRRRR [L19H/I20H]
Output: 256

----------
System: S. aureus
Type: cell-based, Staphylococcus aureus
Ends that are not written are not given here.
MIC: recorded values
Give a bare numeral; the unit µg/mL is implied.

Check out these entries, answers already filled in.
>>> endpoint_result("FIHHIIGGLFSAGKAIHRLIR [dC4]")
64
>>> endpoint_result("FIHHIIGGLFSAGKAIHRHHRRRRR [L19H/I20H]")
128

Input: Lab note: need MIC for FIAAIIGGLFSAGKAIHRLIRRRRR [H3A/H4A] on S. aureus, anyone have it?
Output: 32

Input: Another sequence to check: FIHHIIGGLFSVGKHIHRLIRRRRR [A12V/A15H]
Output: 16

Input: Another sequence to check: HHIIGGLFSAGKAIHRLIRRRRR [dN2]
Output: 512

Input: Another sequence to check: FIHHIIGGLFSVGKHIHSLIHGH [TP3, reference compound]
Output: 256

Input: Another sequence to check: FIHHIIGGLFSAGKAIHRLIRRR [dC2]
Output: 16

Input: Another sequence to check: IIGGLFSAGKAIHRLIRRRRR [dN4]
Output: 128

Input: Another sequence to check: FIHHIIGGLFSAGKAIHSLIHRRRR [R18S/R21H]
Output: 32

Input: Another sequence to check: FIHHIIGGLFSAGKAIHRLIRRRRR [TP4]
Output: 8

----------
Tested on: C. albicans
Type: cell-based, Candida albicans
Ends that are not written are not given here.
MEASURED_ENDPOINT: MIC (µg/mL)
Give a bare numeral; the unit µg/mL is implied.

Check out these entries, answers already filled in.
>>> endpoint_result("FIHHIIGGLFSAGKAEHRLIRRRRR [I16E]")
128
>>> endpoint_result("FIHHIIGGAASAGKAIHRLIRRRRR [L9A/F10A]")
128
>>> endpoint_result("FIHHIIGGLFSAGKAIHSLIHRRRR [R18S/R21H]")
256
>>> endpoint_result("IIGGLFSAGKAIHRLIRRRRR [dN4]")
64
>>> endpoint_result("FIHHIIGGLFSAGKAIHRLIR [dC4]")
128
>>> endpoint_result("FIHHAAGGLFSAGKAIHRLIRRRRR [I5A/I6A]")
128
>>> endpoint_result("FIHHIIGGLFSAGKAIHRLIRRR [dC2]")
128
>>> endpoint_result("AAHHIIGGLFSAGKAIHRLIRRRRR [F1A/I2A]")
64

Input: Report MIC for FIHHIIGGLFSVGKHIHSLIHGH [TP3, reference compound] please.
Output: 128

Input: Another sequence to check: FIHHIIGGLFSVGKHIHRLIRRRRR [A12V/A15H]
Output: 128

Input: Another sequence to check: FIHHIIGGLFSAGKAIHRHHRRRRR [L19H/I20H]
Output: 128

Input: Another sequence to check: FIHHIIGGLFSAGKAAHRLIRRRRR [I16A]
Output: 128
